Target: human ether-à-go-go-related gene (hERG) potassium channel (human)
Sequence (Q12809 whole entry, looked up): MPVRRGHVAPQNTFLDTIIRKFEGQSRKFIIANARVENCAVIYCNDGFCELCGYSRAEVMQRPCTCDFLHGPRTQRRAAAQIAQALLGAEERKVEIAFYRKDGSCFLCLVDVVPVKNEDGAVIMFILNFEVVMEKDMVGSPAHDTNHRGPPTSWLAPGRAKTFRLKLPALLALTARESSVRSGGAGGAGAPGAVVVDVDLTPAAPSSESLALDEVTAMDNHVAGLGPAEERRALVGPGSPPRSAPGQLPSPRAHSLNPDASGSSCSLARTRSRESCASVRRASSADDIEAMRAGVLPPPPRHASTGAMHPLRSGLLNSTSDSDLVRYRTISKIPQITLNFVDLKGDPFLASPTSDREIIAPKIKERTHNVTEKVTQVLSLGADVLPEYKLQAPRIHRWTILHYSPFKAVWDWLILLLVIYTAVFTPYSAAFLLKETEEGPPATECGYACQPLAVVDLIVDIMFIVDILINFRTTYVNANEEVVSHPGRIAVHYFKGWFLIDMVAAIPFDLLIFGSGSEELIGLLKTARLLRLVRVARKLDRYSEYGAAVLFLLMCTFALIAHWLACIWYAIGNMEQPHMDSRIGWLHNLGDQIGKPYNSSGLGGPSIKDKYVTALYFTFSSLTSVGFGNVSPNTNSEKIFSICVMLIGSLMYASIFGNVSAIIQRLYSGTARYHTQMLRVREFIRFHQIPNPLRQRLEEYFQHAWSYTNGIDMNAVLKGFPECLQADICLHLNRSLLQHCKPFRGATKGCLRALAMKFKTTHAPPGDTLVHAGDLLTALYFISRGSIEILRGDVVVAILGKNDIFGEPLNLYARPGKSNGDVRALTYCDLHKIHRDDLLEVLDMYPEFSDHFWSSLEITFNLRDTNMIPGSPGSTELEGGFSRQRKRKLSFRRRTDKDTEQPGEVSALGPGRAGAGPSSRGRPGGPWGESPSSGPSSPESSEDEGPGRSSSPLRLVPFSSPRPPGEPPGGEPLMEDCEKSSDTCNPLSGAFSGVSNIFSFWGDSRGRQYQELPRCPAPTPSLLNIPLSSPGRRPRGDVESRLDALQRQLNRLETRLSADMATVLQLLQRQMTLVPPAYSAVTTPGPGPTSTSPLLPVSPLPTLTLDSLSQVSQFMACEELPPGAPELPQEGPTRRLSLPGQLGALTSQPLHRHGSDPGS
Assay: primary screen, population patch clamp on CHO cells stably expressing hERG; higher = less effect of the substance
Screen size: about 310,000 compounds; about 2,200 (0.71%) showed an effect of 50% or more. The effect is printed as a negative number. This excerpt belongs to a sample that is enriched for strong results.
Some compounds, each annotated with its measured hERG current change (%, negative = inhibition) at 1uM.
Give the value in % but do not write % after it.

- Cc1cccc(NC(=O)Cn2c(=O)n(Cc3ccco3)c(=N)c3c4c(sc32)COC(C)(C)C4)c1: 3
- CCCCn1c(=N)n(CC(O)c2ccccc2)c2ccccc21.Cl (stereo not drawn): -36.7
- CCOc1cccc(CN2CCC(n3nccc3NC(=O)CCCc3ccccc3)CC2)c1: 9.19

INPUT: Requested field: hERG current change (%, negative = inhibition) at 1uM. Item: "c1ccc2oc(SCc3cn4ccccc4n3)nc2c1"
OUTPUT: -12.5

INPUT: Requested field: hERG current change (%, negative = inhibition) at 1uM. Item: "CN(C)S(=O)(=O)c1ccc(C(=O)NCc2ccccn2)cc1"
OUTPUT: 14.5

INPUT: Requested field: hERG current change (%, negative = inhibition) at 1uM. Item: "O=C(CCOc1ccccc1)Nc1ccnn1C1CCN(Cc2ccccc2)CC1"
OUTPUT: 2

INPUT: Requested field: hERG current change (%, negative = inhibition) at 1uM. Item: "O=C(CCOc1ccccc1)Nc1ccnn1C1CCN(Cc2ccc(O)cc2)CC1"
OUTPUT: -3.76

INPUT: Requested field: hERG current change (%, negative = inhibition) at 1uM. Item: "CCn1c(=N)n(CCOc2ccc(OC)cc2)c2ccccc21"
OUTPUT: -25.5

INPUT: Requested field: hERG current change (%, negative = inhibition) at 1uM. Item: CCn1c(=N)n(CC(O)COc2ccc(C)cc2)c2ccccc21.Cl (stereo not drawn)
OUTPUT: -16.8

INPUT: Requested field: hERG current change (%, negative = inhibition) at 1uM. Item: CCCCn1c(=N)n(CC(O)COc2ccccc2)c2ccccc21 (stereo not drawn)
OUTPUT: -68

INPUT: Requested field: hERG current change (%, negative = inhibition) at 1uM. Item: "CCc1c(C)c2c(C)[nH]nc2oc1=O"
OUTPUT: 10.5

INPUT: Requested field: hERG current change (%, negative = inhibition) at 1uM. Item: "Cc1ccc(Cl)cc1NC(=O)N[C@@H](C)C(=O)O"
OUTPUT: 9.9

INPUT: Requested field: hERG current change (%, negative = inhibition) at 1uM. Item: "O=C(CCOc1ccccc1)Nc1ccnn1C1CCN(CCc2ccccc2)CC1"
OUTPUT: -51.4

INPUT: Requested field: hERG current change (%, negative = inhibition) at 1uM. Item: "CCOC(=O)CSc1nnc(CSc2nc3ccccc3s2)n1C"
OUTPUT: 6.96

INPUT: Requested field: hERG current change (%, negative = inhibition) at 1uM. Item: "COc1cccc(CN2CCC(n3nccc3NC(=O)CCCc3ccccc3)CC2)c1O"
OUTPUT: -55.4

INPUT: Requested field: hERG current change (%, negative = inhibition) at 1uM. Item: "COc1cc(CN2CCC(n3nccc3NC(=O)CCCc3ccccc3)CC2)ccc1O"
OUTPUT: -5.54

INPUT: Requested field: hERG current change (%, negative = inhibition) at 1uM. Item: "Br.CCCCn1c(=N)n(CCOc2ccc(C)cc2)c2ccccc21"
OUTPUT: -59.6

INPUT: Requested field: hERG current change (%, negative = inhibition) at 1uM. Item: CCCCn1c(=N)n(CC(O)COc2ccc(C)cc2)c2ccccc21.Cl (stereo not drawn)
OUTPUT: -77

INPUT: Requested field: hERG current change (%, negative = inhibition) at 1uM. Item: CN(C(=O)COC(=O)/C=C/c1ccc2ccccc2n1)C1CCS(=O)(=O)C1 (stereo not drawn)
OUTPUT: 12.9

INPUT: Requested field: hERG current change (%, negative = inhibition) at 1uM. Item: "CCCn1c(=N)n(CCOc2ccc(OC)cc2)c2ccccc21"
OUTPUT: -22

INPUT: Requested field: hERG current change (%, negative = inhibition) at 1uM. Item: "NS(=O)(=O)c1ccc(CCNC(=O)CN2CCN(Cc3cccc4ccccc34)CC2)cc1"
OUTPUT: 8.33
